Test: Pharmacokinetics of oral inecalcitol in HRPC patients (LC/MS/MS of plasma)
Format: in vivo
Conditions: male, plasma; human patients, four mean profiles between 600 μg and 4 mg oral; read-out: approximate half-life
From the text: […]
measure: half-life

stdin: Answer with reported half-life of C[C@H](CC#CC(C)(C)O)[C@H]1CC[C@@H]2/C(=C/C=C3C[C@@H](O)C[C@H](O)C3)CCC[C@@]21C [inecalcitol]
stdout: 1 to 1.5 h

Just for reference, patent US8481514B2 is where these values come from.
